biological target: D-histidine 2-aminobutanoyltransferase (Staphylococcus aureus (strain Mu50 / ATCC 700699)); assay: Binding affinity to N-terminal his6-tagged Staphylococcus aureus ATCC 700699 CntL assessed as dissociation constant by ITC analysis
measurement label: Kd (nM)

A = Nc1nc(Cl)nc2c1ncn2[C@@H]1O[C@H](CSCCN[C@@H](Cc2c[nH]cn2)C(=O)O)[C@@H](O)[C@H]1O
B = CSC[C@H]1O[C@@H](n2cnc3c(N)ncnc32)[C@H](O)[C@@H]1O
C = Nc1ncnc2c1ncn2[C@@H]1O[C@H](CSCCN[C@@H](Cc2c[nH]cn2)C(=O)O)[C@@H](O)[C@H]1O
D = Nc1ncnc2c1ncn2[C@@H]1O[C@H](CSCCCN[C@@H](Cc2c[nH]cn2)C(=O)O)[C@@H](O)[C@H]1O
[in] Given 4 molecules, produce a descending ranking by Kd. Write the labels out in the order the request specifies.
[out] B, D, C, A
(B: 10900 nM, D: 180 nM, C: 41 nM, A: 21 nM)
